Tested on: UACC-257 melanoma
Test: NCI tumour cell line growth inhibition, 48 h
Give measured GI50 for each item. Keep answers brief.

Worked examples follow.
- COc1ccc(C(=O)NCCNc2nccc(-c3c(-c4ccc(F)cc4)nc4sccn34)n2)cc1: 13900 nM
- O=C(Nc1ccc(-n2ccc3c(NC(=O)c4ccccc4)nccc32)cc1)c1cccc(C(F)(F)F)c1: 2090 nM
- Cn1ccnc1C(=O)/C=C/c1ccc(C(=O)Nc2ccccc2F)cc1: 3510 nM

Lookup: Provide only the value of recorded GI50 for COc1ccc2oc(=O)cc(C3c4ccc([nH]4)C(c4cc(=O)oc5ccc(OC)cc45)c4ccc([nH]4)C(c4cc(=O)oc5ccc(OC)cc45)c4ccc([nH]4)C(c4cc(=O)oc5ccc(OC)cc45)c4ccc3[nH]4)c2c1 (centres undefined)
Found: 2250 nM

These entries and their values trace back to PubChem BioAssay (NCI).
